Hey, just so you know, these numbers are from patent US11999727B2.

Test system: HAP1 MTAP-deleted cell line
Assay: Viability assay, MTAP-deleted cell line
Type: cell-based
Settings: Homo sapiens, HAP1, viability assay, MTAP-deleted cell line; read-out: HAP1 MTAP deleted viability
pIC50: −log10 of the molar value.
measured_property: pIC50

[
  {
    "molecule": "COc1ncc(NC(=O)C(=O)N2C[C@@H](C)CC[C@@H]2c2cc(Cl)cc(Cl)c2)cc1C(N)=O (single isomer, unassigned)",
    "measured_property": "pIC50",
    "measured_result": "5.00 to 6.00"
  },
  {
    "molecule": "O=Cc1cncc(NC(=O)C(=O)N2CCCCC2c2ccccc2)c1 (stereo not shown)",
    "measured_property": "pIC50",
    "measured_result": "< 5.00"
  },
  {
    "molecule": "COc1ncc(NC(=O)C(=O)N2C[C@@H](C)CC[C@@H]2c2cccc3[nH]ncc23)cc1C(N)=O (single isomer, unassigned)",
    "measured_property": "pIC50",
    "measured_result": "> 6.00"
  },
  {
    "molecule": "Cc1cc(NC(=O)C(=O)N2C[C@@H](C)CC[C@@H]2c2ccc3snc(C)c3c2)cnc1N (single isomer, unassigned)",
    "measured_property": "pIC50",
    "measured_result": "> 6.00"
  }
]

----------
Target: PRMT5 (Homo sapiens, UniProt O14744)
Construct: purchased Viva (custom protein)
Sequence (O14744 whole entry): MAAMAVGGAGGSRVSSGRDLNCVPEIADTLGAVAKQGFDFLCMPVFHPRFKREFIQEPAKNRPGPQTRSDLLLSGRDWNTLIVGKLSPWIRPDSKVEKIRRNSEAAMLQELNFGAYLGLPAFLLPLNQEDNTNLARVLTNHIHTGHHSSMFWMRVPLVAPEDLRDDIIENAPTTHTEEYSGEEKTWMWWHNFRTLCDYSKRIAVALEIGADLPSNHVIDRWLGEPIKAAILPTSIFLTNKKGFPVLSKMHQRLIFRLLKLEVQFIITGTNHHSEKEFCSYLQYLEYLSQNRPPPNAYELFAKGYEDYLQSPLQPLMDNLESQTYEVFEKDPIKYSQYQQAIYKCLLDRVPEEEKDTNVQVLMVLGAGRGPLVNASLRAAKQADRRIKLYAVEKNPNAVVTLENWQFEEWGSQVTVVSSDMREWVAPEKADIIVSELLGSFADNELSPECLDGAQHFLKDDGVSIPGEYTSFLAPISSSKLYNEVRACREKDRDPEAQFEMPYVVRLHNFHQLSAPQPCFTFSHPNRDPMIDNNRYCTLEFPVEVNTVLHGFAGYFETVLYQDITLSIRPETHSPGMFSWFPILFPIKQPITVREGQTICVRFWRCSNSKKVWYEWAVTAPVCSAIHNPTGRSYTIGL
Sequence (Q9BQA1 whole entry partner): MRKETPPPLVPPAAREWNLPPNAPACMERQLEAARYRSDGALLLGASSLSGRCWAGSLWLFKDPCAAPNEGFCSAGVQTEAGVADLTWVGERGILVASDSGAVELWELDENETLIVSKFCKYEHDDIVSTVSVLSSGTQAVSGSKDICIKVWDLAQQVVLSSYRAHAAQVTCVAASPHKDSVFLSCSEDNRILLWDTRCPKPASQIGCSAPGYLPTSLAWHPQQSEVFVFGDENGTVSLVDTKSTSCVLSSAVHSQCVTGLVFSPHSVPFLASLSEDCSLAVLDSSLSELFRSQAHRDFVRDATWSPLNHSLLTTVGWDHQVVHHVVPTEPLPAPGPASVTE
Experiment: PRMT5 biochemical IC50 assay with SAM as cofactor
Details: PRMT5, SAM as cofactor; read-out: SAM IC50
measured_property: IC50

[
  {
    "compound": "CNc1ccc([C@@H]2CC[C@@H](C)CN2C(=O)C(=O)Nc2cnc(N)c(C)c2)cc1 (racemic)",
    "system_name": "PRMT5 (Homo sapiens, UniProt O14744)",
    "measured_property": "IC50",
    "measured_result": "50 to 500 nM"
  },
  {
    "compound": "CCc1cc(NC(=O)C(=O)N2C[C@@H](C)CC[C@@H]2c2ccc(N3CCN(C)C[C@H]3C)nc2)cnc1N",
    "system_name": "PRMT5 (Homo sapiens, UniProt O14744)",
    "measured_property": "IC50",
    "measured_result": "50 to 500 nM"
  },
  {
    "compound": "COc1ncc(NC(=O)C(=O)N2C[C@@H](C)CC[C@@H]2c2ccc(-c3nccs3)cc2)cc1C(N)=O (single isomer, unassigned)",
    "system_name": "PRMT5 (Homo sapiens, UniProt O14744)",
    "measured_property": "IC50",
    "measured_result": "50 to 500 nM"
  },
  {
    "compound": "CCc1cc(NC(=O)C(=O)N2C[C@@H](C)CC[C@@H]2c2ccc(NS(C)(=O)=O)nc2)cnc1N (single isomer, unassigned)",
    "system_name": "PRMT5 (Homo sapiens, UniProt O14744)",
    "measured_property": "IC50",
    "measured_result": "> 500 nM"
  },
  {
    "compound": "Cc1cc(NC(=O)C(=O)N2C[C@H](C)CC[C@H]2c2ccc(-c3ccn[nH]3)s2)cnc1N (racemic)",
    "system_name": "PRMT5 (Homo sapiens, UniProt O14744)",
    "measured_property": "IC50",
    "measured_result": "50 to 500 nM"
  },
  {
    "compound": "CNc1ccc([C@@H]2CC[C@H](C)CN2C(=O)C(=O)Nc2cnc(OC)c(C(N)=O)c2)cn1 (single isomer, unassigned)",
    "system_name": "PRMT5 (Homo sapiens, UniProt O14744)",
    "measured_property": "IC50",
    "measured_result": "> 500 nM"
  }
]

----------
Quick list: IC50 per entry.
Target: PRMT5 (Homo sapiens)
Construct: purchased Viva (custom protein)
Assay: PRMT5 biochemical IC50 assay with no cofactor
Settings: PRMT5, no cofactor; read-out: No Cofactor/rel IC50

[
  {
    "compound": "Cc1ccc([C@@H]2CC[C@@H](C)CN2C(=O)C(=O)Nc2cnc(N)c(C)c2)cc1O (racemic) [Compound 580]",
    "IC50": "50 to 500 nM"
  },
  {
    "compound": "Cc1ncc(NC(=O)C(=O)N2C[C@@H](C)CC[C@@H]2c2ccccc2)cc1C(N)=O (single isomer, unassigned) [Compound 200]",
    "IC50": "50 to 500 nM"
  },
  {
    "compound": "Cc1cc(NC(=O)C(=O)N2C[C@@H](C)CC[C@@H]2c2cccnc2)cnc1N (single isomer, unassigned) [Compound 309]",
    "IC50": "> 500 nM"
  },
  {
    "compound": "COc1ncc(NC(=O)C(=O)N2C[C@H](C)CC[C@@H]2C2CCCC2)cc1C(N)=O (single isomer, unassigned) [Compound 312]",
    "IC50": "> 500 nM"
  },
  {
    "compound": "COc1ccc([C@@H]2CC[C@@H](C)CN2C(=O)C(=O)Nc2cncc(C(N)=O)c2)cc1F (racemic) [Compound 208]",
    "IC50": "50 to 500 nM"
  },
  {
    "compound": "C[C@@H]1CC[C@@H](c2ccc(-c3ccn[nH]3)cc2)N(C(=O)C(=O)Nc2cncc(C(N)=O)c2)C1 (racemic) [Compound 524]",
    "IC50": "50 to 500 nM"
  },
  {
    "compound": "C[C@@H]1CC[C@@H](c2ccc(OC(F)F)cc2)N(C(=O)C(=O)Nc2cncc(C(N)=O)c2)C1 (racemic) [Compound 271]",
    "IC50": "50 to 500 nM"
  },
  {
    "compound": "COc1ncc(NC(=O)C(=O)N2C[C@@H](C)CC[C@@H]2c2cc3[nH]ncc3s2)cc1C(N)=O (single isomer, unassigned) [Compound 1006]",
    "IC50": "50 to 500 nM"
  },
  {
    "compound": "COc1ncc(NC(=O)C(=O)N2C[C@@H](C)CC[C@@H]2c2cccc3[nH]ncc23)cc1C(N)=O (single isomer, unassigned) [Compound 918]",
    "IC50": "50 to 500 nM"
  },
  {
    "compound": "Cc1cc(NC(=O)C(=O)N2C[C@H](C)CC[C@H]2c2ccc(C(F)F)nc2)cnc1N (single isomer, unassigned) [Compound 1011]",
    "IC50": "> 500 nM"
  },
  {
    "compound": "COc1ncc(NC(=O)C(=O)N2C[C@@H](C)CC[C@@H]2c2ccc3[nH]c(=O)ccc3c2)cc1C(N)=O (single isomer, unassigned) [Compound 807]",
    "IC50": "< 50 nM"
  },
  {
    "compound": "C[C@@H]1CC[C@@H](c2ccc(OC(F)(F)F)cc2)N(C(=O)C(=O)Nc2cncc(C(N)=O)c2)C1 (racemic) [Compound 250]",
    "IC50": "50 to 500 nM"
  },
  {
    "compound": "CCc1cc(NC(=O)C(=O)N2C[C@@H](C)CC[C@@H]2c2cc(Cl)cc(Cl)c2)cnc1N (single isomer, unassigned) [Compound 951]",
    "IC50": "< 50 nM"
  },
  {
    "compound": "CCc1cc(NC(=O)C(=O)N2CC(C)CCC2c2ccc3sc(C4CCN(C)CC4C)nc3c2)cnc1N (racemic) [Compound 1131]",
    "IC50": "< 50 nM"
  },
  {
    "compound": "C[C@H]1CC[C@H](c2ccn(-c3cc[nH]n3)n2)N(C(=O)C(=O)Nc2cncc(C(N)=O)c2)C1 (single isomer, unassigned) [Compound 882]",
    "IC50": "> 500 nM"
  },
  {
    "compound": "NC(=O)c1cncc(NC(=O)C(=O)N2CCC3(CCOCC3)CC2)c1 [Compound 191]",
    "IC50": "> 500 nM"
  },
  {
    "compound": "C[C@@H]1CC[C@@H](c2ccc(Cl)c(N)c2)N(C(=O)C(=O)Nc2cncc(C(N)=O)c2)C1 (racemic) [Compound 280]",
    "IC50": "50 to 500 nM"
  },
  {
    "compound": "Cc1cc(NC(=O)C(=O)N2C[C@H](C)CC[C@H]2c2ccc(C(C)(C)O)cc2)cnc1N (racemic) [Compound 672]",
    "IC50": "50 to 500 nM"
  },
  {
    "compound": "COc1ncc(NC(=O)C(=O)N2C[C@@H](C)CC[C@@H]2c2ccn(-c3cc[nH]n3)n2)cc1C(N)=O (single isomer, unassigned) [Compound 881]",
    "IC50": "> 500 nM"
  },
  {
    "compound": "CCc1ccc([C@H]2CC[C@H](C)CN2C(=O)C(=O)Nc2cnc(N)c(C)c2)cn1 (single isomer, unassigned) [Compound 1016]",
    "IC50": "> 500 nM"
  },
  {
    "compound": "Cc1cc(NC(=O)C(=O)N2C[C@@H](C)CC[C@@H]2c2ccc3sc(C4CCN(CCF)CC4)nc3c2)cnc1N [Compound 1114]",
    "IC50": "< 50 nM"
  },
  {
    "compound": "COc1ncc(NC(=O)C(=O)N2C[C@@H](C)CC[C@@H]2c2ccc3c(c2)CNC3=O)cc1C(N)=O (single isomer, unassigned) [Compound 750]",
    "IC50": "> 500 nM"
  },
  {
    "compound": "Cc1cc(NC(=O)C(=O)N2C[C@@H](C)CC[C@@H]2[C@H]2CC[C@H](O)CC2)cnc1N (single isomer, unassigned) [Compound 434]",
    "IC50": "> 500 nM"
  },
  {
    "compound": "C[C@@H]1CC[C@H](c2ccccn2)N(C(=O)C(=O)Nc2cncc(C(N)=O)c2)C1 (racemic) [Compound 584]",
    "IC50": "> 500 nM"
  },
  {
    "compound": "C[C@@H]1CC[C@@H](c2cccc(C3CCC3)c2)N(C(=O)C(=O)Nc2cncc(C(N)=O)c2)C1 (racemic) [Compound 261]",
    "IC50": "50 to 500 nM"
  }
]
